# Organism: Rattus norvegicus
# Assay protocol: Open TG-GATES - Regimen: Daily Repeat
# Assay type: toxicity, organism-based, Sprague-Dawley
# Set-up: regimen Daily Repeat, gender Male, age 6 weeks
# Stated conditions: in vivo, po, 0 mg/kg, 72 h, tissue Liver, route gavage, dose level Control, time 3 day
Measured LIVER values are reported for all entries that follow.

Below, each entry is followed by its recorded LIVER result.
| Compound | LIVER |
| --- | --- |
| C[C@H]1O[C@H](O[C@H]2[C@H](O)[C@@H](O)[C@@H](O[C@H]3[C@H](O)[C@@H](O)C(O)O[C@@H]3CO)O[C@@H]2CO)[C@H](O)[C@@H](O)[C@@H]1N[C@H]1C=C(CO)[C@@H](O)[C@H](O)[C@H]1O (stereo partly drawn) [ACARBOSE] | 10.3 g |
| C=C(C)[C@H]1Cc2c(ccc3c2O[C@@H]2COc4cc(OC)c(OC)cc4[C@@H]2C3=O)O1 [ROTENONE] | 10 g |
| CCOC(=O)C(C)(C)Oc1ccc(Cl)cc1 [CLOFIBRATE] | 12 g |
| C[C@H]1C(=O)O[C@@H]2CCN3CC=C(COC(=O)[C@](C)(O)[C@]1(C)O)[C@H]23 [MONOCROTALINE] | 11 g |

[Q] // LIVER lookup, key: Cc1cccc(C)c1OCC(C)N (stereo not drawn) [MEXILETINE]
[A] 11.2 g

[Q] Name the recorded LIVER for O=C1CN(/N=C/c2ccc([N+](=O)[O-])o2)C(=O)N1 [NITROFURANTOIN] .
[A] 12.1 g

[Q] Reported LIVER, compound OCCN1CCN(CCCN2c3ccccc3Sc3ccc(C(F)(F)F)cc32)CC1 [FLUPHENAZINE] : ____
[A] 11.9 g

[Q] Entry O=[N+]([O-])c1ccc(O)c([N+](=O)[O-])c1 [2,4-DINITROPHENOL] has what LIVER?
[A] 11.9 g

###

# Organism: Rattus norvegicus
# Assay protocol: Open TG-GATES - Regimen: Single
# Assay type: toxicity, organism-based, Sprague-Dawley
# Parameters: regimen Single, gender Male, age 6 weeks
# Stated conditions: in vivo, po, 0 mg/kg, 24 h, tissue Blood, route gavage, dose level Control
Overview of reported PT across a group of compounds:
Provide the reading as a plain figure in s.

Recorded results for 3 compounds are shown here.
| Compound | Unit abbrev | PT |
| --- | --- | --- |
| Cc1cccc(C)c1OCC(C)N (centres undefined) | s | 16.4 |
| C[C@H]1O[C@H](O[C@H]2[C@H](O)[C@@H](O)[C@@H](O[C@H]3[C@H](O)[C@@H](O)C(O)O[C@@H]3CO)O[C@@H]2CO)[C@H](O)[C@@H](O)[C@@H]1N[C@H]1C=C(CO)[C@@H](O)[C@H](O)[C@H]1O (some centres undefined) | s | 13.1 |
| Cn1cc[nH]c1=S | s | 15.7 |

# evaluate next
[Q] GET /values?readout=PT&item= OCCN1CCN(CCCN2c3ccccc3Sc3ccc(C(F)(F)F)cc32)CC1
[A] 12

###

# Species: Rattus norvegicus
# Assay protocol: Open TG-GATES - Regimen: Single
# Assay type: toxicity, organism-based, Sprague-Dawley
# Parameters: regimen Single, gender Male, age 6 weeks
# Stated conditions: in vivo, po, 0 mg/kg, 24 h, tissue Plasma, route gavage, dose level Control
Metric: Na (meq/L)
The answer is to be given in meq/L; state only the numeric part.

| Molecule | Metric | Reported measurement |
| --- | --- | --- |
| C[C@H]1O[C@H](O[C@H]2[C@H](O)[C@@H](O)[C@@H](O[C@H]3[C@H](O)[C@@H](O)C(O)O[C@@H]3CO)O[C@@H]2CO)[C@H](O)[C@@H](O)[C@@H]1N[C@H]1C=C(CO)[C@@H](O)[C@H](O)[C@H]1O (some centres undefined) | Na | 141.4 |

[Q] May I ask what Na has been recorded for Cn1cc[nH]c1=S ?
[A] 142.4

[Q] Given the entry C[C@H]1C(=O)O[C@@H]2CCN3CC=C(COC(=O)[C@](C)(O)[C@]1(C)O)[C@H]23 , report its measured Na.
[A] 141.2

[Q] Can you share its Na? I mean this molecule: Cc1ccc2cc3c(ccc4ccccc43)c3c2c1CC3
[A] 142

[Q] Recorded Na for CCOC(=O)C(C)(C)Oc1ccc(Cl)cc1 [CLOFIBRATE] , please?
[A] 140

[Q] Give the measured Na of Cc1cccc(C)c1OCC(C)N (centres undefined) .
[A] 143.2

[Q] Fill in: Na of O=[N+]([O-])c1ccc(O)c([N+](=O)[O-])c1 is ___
[A] 139

[Q] Quick one: Na for OCCN1CCN(CCCN2c3ccccc3Sc3ccc(C(F)(F)F)cc32)CC1 ?
[A] 137.4

[Q] Fill in: Na of C=C(C)[C@H]1Cc2c(ccc3c2O[C@@H]2COc4cc(OC)c(OC)cc4[C@@H]2C3=O)O1 is ___
[A] 139

Data provenance: ChEMBL document CHEMBL3885861
